Test system: P. aeruginosa 2297 (AmpC wt)
TEST_NAME: MIC determination, broth microdilution (CLSI)
Assay type: cell-based
STUDY_CONDITIONS: Pseudomonas aeruginosa, strain 7
RECORDED_METRIC: MIC (mg/L)
Output spec: scalar in mg/L, unitless text.

Check out these entries, answers already filled in.
MOLECULE	STUDY_SYSTEM	RECORDED_METRIC	RESULT
CC1(C)[C@H](NC(=O)/C(=N\OCCOc2ccc(C(=N)N[C@H]3CCNC3)cc2)c2csc(N)n2)C(=O)N1OS(=O)(=O)O	P. aeruginosa 2297 (AmpC wt)	MIC	4
CC1(C)[C@H](NC(=O)/C(=N\OCCOc2ccc(C(=N)NCCN)cc2)c2csc(N)n2)C(=O)N1OS(=O)(=O)O	P. aeruginosa 2297 (AmpC wt)	MIC	4
Cc1sc(C(=N)N)nc1OCCO/N=C(\C(=O)N[C@@H]1C(=O)N(OS(=O)(=O)O)C1(C)C)c1csc(N)n1	P. aeruginosa 2297 (AmpC wt)	MIC	32

Switching to the query record.
I'd like to know its MIC. The molecule in question is C[C@H]1[C@H](NC(=O)/C(=N\OCCOc2cc(C(=N)N)n(C)n2)c2csc(N)n2)C(=O)N1S(=O)(=O)O
8

Origin of values: patent US9556165B2
